Experiment: Solubility study of clozapine at various pH and solvent
Format: physicochemical
Conditions: purified water, water, thermodynamic from solid, Purified Water; read-out: Solubility
assay-readout: Solubility (µg/mL)
Numbers only, in µg/mL.

Suppose we examine the compound "CN1CCN(C2=Nc3cc(Cl)ccc3Nc3ccccc32)CC1" ; what Solubility value has been reported? 40
